test system: NCI-H226 lung; assay: NCI-60 one-dose screen, 48 h (100 = growth as untreated, 0 = no growth, -100 = all killed); settings: 10 µM unless noted
This is part of a sample that, as a whole, favours compounds with a hit. Of some 83,000 tested, about 20% had one in any assay.
READOUT: growth (%)

* COc1cc(C(=O)n2nc(NCCCc3ccccc3)c3cc(N)ccc32)cc(OC)c1OC | 89.7
* O=c1ccc2nc(-c3ccccc3)nn(-c3ccccn3)c-2c1 | 91.9
* Cc1ccccc1NC(=O)Cn1cc(CN2CCN(c3ccnc4cc(Cl)ccc34)CC2)nn1 | 90.9
* N=C(N)c1ccc(-c2ccc(-c3ccc(Cl)cc3Cl)s2)nc1 | 91.7
* OC1CSSC1Cn1cnc2c(Nc3ccc(F)c(Cl)c3)ncnc21 (configuration not stated) | 87.9
* COc1cccc(CNc2nnc(C)c(C)n2)c1O | 89.1
* COc1cc(CNC(=O)CCCC/C=C/C(C)C)ccc1OCc1cn(-c2cccc([N+](=O)[O-])c2)nn1 | 90.9
